test system: Klebsiella aerogenes; experiment: Activity against Enterobacter aerogenes; format: functional

# Compound, CMI
records = [
    ("CCn1cc(C(=O)O)c(=O)c2cc(F)c(N3CCN(C)CC3)cc21", "0.12 mg/L"),
    ("CC1COc2c(N3CCN(C)CC3)c(F)cc3c(=O)c(C(=O)O)cn1c23 (centres undefined)", "0.12 mg/L"),
    ("CCn1cc(C(=O)O)c(=O)c2cnc(N3CCNCC3)nc21", "2 mg/L"),
    ("CCn1cc(C(=O)O)c(=O)c2cc(F)c(N3CCNCC3)nc21", "0.16 mg/L"),
    ("CCn1cc(C(=O)O)c(=O)c2ccc(C)nc21", "3 mg/L"),
    ("CCn1cc(C(=O)O)c(=O)c2cc(F)c(N3CCNCC3)cc21", "0.1 mg/L"),
    ("CC1CN(c2cc3c(cc2F)c(=O)c(C(=O)O)cn3-c2ccc(F)cc2F)CCN1 (centres undefined)", "0.16 mg/L"),
    ("CNn1cc(C(=O)O)c(=O)c2cc(F)c(N3CCN(C)CC3)cc21", "0.11 mg/L"),
    ("CCn1cc(C(=O)O)c(=O)c2cc3c(cc21)OCO3", "0.5 mg/L"),
]

* * *

Items are presented alongside their recorded CMI.
system: Klebsiella aerogenes; test: Activity against Enterobacter aerogenes; format: functional

# Compound, Output Unit, CMI
data = [
    ("O=C(O)c1cn(C2CC2)c2cc(N3CCNCC3)c(F)cc2c1=O [CIPROFLOXACIN]", "mg/L", 0.03),
    ("CCn1cc(C(=O)O)c(=O)c2cc(F)c(N3CCNC(C)C3)c(F)c21 (centres undefined) [LOMEFLOXACIN]", "mg/L", 0.16),
    ("NC1CCN(c2nc3c(cc2F)c(=O)c(C(=O)O)cn3-c2ccccc2F)C1 (centres undefined) [TUSOFLOXACINE]", "mg/L", 0.05),
    ("CN1CCN(c2cc3c(cc2F)c(=O)c(C(=O)O)cn3-c2ccc(F)cc2)CC1 [DIFLOXACIN]", "mg/L", 0.19),
]

* * *

Items are presented alongside their recorded bioavailability.
assay: in vivo; conditions: eutheria
Value Kind: bioavailability (%)

# Compound, Meas Value
data = [
    ("CCn1cc(C(=O)O)c(=O)c2cc(F)c(N3CCNCC3)cc21", 63),
    ("CCn1cc(C(=O)O)c(=O)c2cc(F)c(N3CCN(C)CC3)cc21", 91.2),
    ("CCn1cc(C(=O)O)c(=O)c2ccc(C)nc21", 60),
    ("CCn1cc(C(=O)O)c(=O)c2cc(F)c(N3CCNC(C)C3)c(F)c21 (configuration not stated)", 98),
    ("CC1COc2c(N3CCN(C)CC3)c(F)cc3c(=O)c(C(=O)O)cn1c23 (configuration not stated)", 94.4),
    ("CCn1cc(C(=O)O)c(=O)c2cc(F)c(N3CCNCC3)nc21", 87.4),
    ("CC1CN(c2cc3c(cc2F)c(=O)c(C(=O)O)cn3-c2ccc(F)cc2F)CCN1 (configuration not stated)", 90),
]
